- System: human ovarian cancer cell A2780
- procedure-summary: proliferation inhibitory activity against A2780 cells (CellTiter-Glo)
- Type: cell-based
- conditions-used: A2780, 72 h, 1 μM test compound, 3 days of culture, read-out: proliferation inhibitory rate (%) of A2780 cells
Measured inhibition at 1 µM accompanies every entry in the list below.
Kindly provide the numeric value in % only, without the unit symbol.

Sample answers from the record:
[[record]]
molecule = "Cc1cc(N2CC[C@@](C#N)(C3CC3)C2=O)cc(NC(=O)Cc2cccc(-c3cnn(C)c3C)c2)n1 [Example 98]"
unit_of_measure = "%"
test_result = 69

[[record]]
molecule = "Cn1cc(-c2cccc(CC(=O)Nc3cc(N4CC[C@@](C#N)(C5CC5)C4=O)ccn3)c2)cn1 [Example 26]"
unit_of_measure = "%"
test_result = 92

[[record]]
molecule = "COCCn1cc(-c2cccc(CC(=O)Nc3cc(N4CC[C@@](C#N)(C5CC5)C4=O)ccn3)c2)cn1 [Example 70]"
unit_of_measure = "%"
test_result = 58

[[record]]
molecule = "CCc1cc(N2CC[C@@](C#N)(C3CC3)C2=O)cc(NC(=O)Cc2cc(F)cc(-c3cnn(C)c3)c2)n1 [Example 99]"
unit_of_measure = "%"
test_result = 70

[[record]]
molecule = "N#C[C@@]1(C2CC2)CCN(c2ccnc(NC(=O)Cc3cccc(-c4cnn(CCCC(F)(F)F)c4)c3)c2)C1=O [Example 90]"
unit_of_measure = "%"
test_result = 61

[[record]]
molecule = "Cn1cc(-c2cccc(CC(=O)Nc3cc(N4CC[C@@](C#N)(C5CC5)C4=O)cc(F)n3)c2)cn1 [Example 63]"
unit_of_measure = "%"
test_result = 88


Exercise: Recall and state the measured inhibition at 1 µM for N#C[C@@]1(C2CC2)CCN(c2ccnc(NC(=O)Cc3cccc(-c4cnn(CC5CCCCO5)c4)c3)c2)C1=O (stereo partly drawn) [Example 83] .
Key: 58

Exercise: Recall and state the measured inhibition at 1 µM for Cn1ccc(-c2cccc(CC(=O)Nc3cc(N4CC[C@@](C#N)(C5CC5)C4=O)ccn3)c2)cc1=O [Example 51] .
Key: 52

Exercise: Recall and state the measured inhibition at 1 µM for N#C[C@@]1(C2CC2)CCN(c2ccnc(NC(=O)Cc3cccc(-c4cnn(CC5COCCO5)c4)c3)c2)C1=O (stereo partly drawn) [Example 85] .
Key: 54

Exercise: Recall and state the measured inhibition at 1 µM for CC(C)(C)OC(=O)n1cc(-c2cccc(CC(=O)Nc3cc(N4CC[C@@](C#N)(C5CC5)C4=O)ccn3)c2)cn1 [Example 55] .
Key: 67

Exercise: Recall and state the measured inhibition at 1 µM for COCCCn1cc(-c2cccc(CC(=O)Nc3cc(N4CC[C@@](C#N)(C5CC5)C4=O)ccn3)c2)cn1 [Example 74] .
Key: 62

Exercise: Recall and state the measured inhibition at 1 µM for Cn1cc(-c2cc(F)cc(CC(=O)Nc3cc(N4CC[C@@](C#N)(C5CC5)C4=O)ccn3)c2)cn1 [Example 35] .
Key: 97

Exercise: Recall and state the measured inhibition at 1 µM for CC(C)n1cc(-c2cccc(CC(=O)Nc3cc(N4CC[C@@](C#N)(C5CC5)C4=O)ccn3)c2)cn1 [Example 93] .
Key: 76
